Hey, just so you know, these numbers are from ChEMBL document CHEMBL3593161.

Please provide measured IC50 for the entries that follow.
- Test system: Poly [ADP-ribose] polymerase tankyrase-1 (Homo sapiens)
- Sequence (O95271 whole entry): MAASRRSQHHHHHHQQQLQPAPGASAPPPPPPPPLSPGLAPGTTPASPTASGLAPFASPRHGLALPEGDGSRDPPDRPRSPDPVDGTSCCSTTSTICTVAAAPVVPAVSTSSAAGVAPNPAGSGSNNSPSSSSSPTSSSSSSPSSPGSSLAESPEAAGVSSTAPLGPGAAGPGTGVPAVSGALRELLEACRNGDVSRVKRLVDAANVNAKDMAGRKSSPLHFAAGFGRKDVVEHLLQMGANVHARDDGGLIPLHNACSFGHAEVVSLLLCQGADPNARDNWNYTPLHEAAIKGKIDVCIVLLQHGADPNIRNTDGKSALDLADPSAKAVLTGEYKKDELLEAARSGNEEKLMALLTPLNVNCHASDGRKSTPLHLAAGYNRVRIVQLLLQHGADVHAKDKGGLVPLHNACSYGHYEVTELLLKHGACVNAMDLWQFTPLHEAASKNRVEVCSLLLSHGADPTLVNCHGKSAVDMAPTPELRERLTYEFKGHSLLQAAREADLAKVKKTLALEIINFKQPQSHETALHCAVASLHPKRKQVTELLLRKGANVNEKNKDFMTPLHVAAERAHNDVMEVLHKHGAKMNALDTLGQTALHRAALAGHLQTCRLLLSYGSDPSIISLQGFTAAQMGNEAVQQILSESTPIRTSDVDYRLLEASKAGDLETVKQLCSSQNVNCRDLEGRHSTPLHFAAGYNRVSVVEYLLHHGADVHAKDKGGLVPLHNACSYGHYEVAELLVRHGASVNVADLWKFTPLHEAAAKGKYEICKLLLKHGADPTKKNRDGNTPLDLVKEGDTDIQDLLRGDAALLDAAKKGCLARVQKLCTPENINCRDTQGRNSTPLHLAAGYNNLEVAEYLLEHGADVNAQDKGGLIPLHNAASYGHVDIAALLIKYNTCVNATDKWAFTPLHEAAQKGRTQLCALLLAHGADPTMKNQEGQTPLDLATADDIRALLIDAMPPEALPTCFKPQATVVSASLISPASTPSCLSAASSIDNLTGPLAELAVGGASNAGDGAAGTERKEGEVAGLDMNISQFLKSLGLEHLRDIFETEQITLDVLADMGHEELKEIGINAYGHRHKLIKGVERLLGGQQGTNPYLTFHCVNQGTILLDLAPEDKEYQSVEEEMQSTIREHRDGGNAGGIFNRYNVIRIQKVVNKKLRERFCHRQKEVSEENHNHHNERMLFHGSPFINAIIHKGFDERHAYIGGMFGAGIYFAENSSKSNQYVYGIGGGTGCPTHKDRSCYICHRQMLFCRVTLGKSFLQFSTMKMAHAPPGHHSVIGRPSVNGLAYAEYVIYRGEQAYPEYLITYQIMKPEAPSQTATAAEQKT
- Assay text: Inhibition of human TNKS1 (1030 to 1317) using NAD substrate after 20 mins incubation by fluorescence assay
Answers are plain numbers, in µM.

>>> observed_measurement("CN1CCN(c2nc3c(c(=O)[nH]2)CCCC3)CC1")
6.3
>>> observed_measurement("CC(C)c1ccc(C2NC(=O)c3ccccc3N2)cc1 (stereo not drawn)")
1.1

What IC50 value was documented for this compound, "O=c1[nH]c(N2CCN(Cc3ccncc3)CC2)nc2c1CCCC2" ?
0.37
